Where these numbers come from: ChEMBL document CHEMBL2311261

Assign IC50 to each entry below.
test system: Radical scavenging activity; test: Antioxidant activity assessed as DPPH radical scavenging activity; assay type: functional
The response must be a number in µM with no trailing unit.

Asked: Checklist item: IC50 tested on Radical scavenging activity, entry "CC/C=C\C/C=C\C/C=C\CCCCCCCC(=O)OC[C@H]1O[C@@H](Oc2c(-c3ccc(O)c(O)c3)oc3cc(O)cc(O)c3c2=O)[C@H](O)[C@@H](O)[C@@H]1O" , value?
Given back: 97.9

Asked: Request: IC50, test system Radical scavenging activity, entry "CCCCCCCCCCCCCCCCCC(=O)OC[C@H]1O[C@@H](Oc2c(-c3ccc(O)c(O)c3)oc3cc(O)cc(O)c3c2=O)[C@H](O)[C@@H](O)[C@@H]1O"
Given back: 42

Asked: # returns recorded IC50 (system: Radical scavenging activity) for "CCCCCCCC/C=C\CCCCCCCC(=O)OC[C@H]1O[C@@H](Oc2c(-c3ccc(O)c(O)c3)oc3cc(O)cc(O)c3c2=O)[C@H](O)[C@@H](O)[C@@H]1O"
Given back: 38.2

Asked: Lab note: need IC50 with Radical scavenging activity for entry "CCCCC/C=C\C/C=C\CCCCCCCC(=O)OC[C@H]1O[C@@H](Oc2c(-c3ccc(O)c(O)c3)oc3cc(O)cc(O)c3c2=O)[C@H](O)[C@@H](O)[C@@H]1O" , please look it up.
Given back: 60.4

Asked: Given the entry "O=C(CCc1ccc(O)cc1)c1c(O)cc(O)cc1O[C@@H]1O[C@H](CO)[C@@H](O)[C@H](O)[C@H]1O" , what IC50 was observed with Radical scavenging activity?
Given back: 1490

Asked: Which IC50 is reported with Radical scavenging activity for this entry: "O=c1c(O[C@@H]2O[C@H](CO)[C@@H](O)[C@H](O)[C@H]2O)c(-c2ccc(O)c(O)c2)oc2cc(O)cc(O)c12" ?
Given back: 17.9
